Attribute: MRGPRX4 activation, fluorescence change (dF/F0), Average
# System Under Test: MRGPRX4 (Homo sapiens, UniProt Q96LA9)
# Sequence (Q96LA9 whole entry): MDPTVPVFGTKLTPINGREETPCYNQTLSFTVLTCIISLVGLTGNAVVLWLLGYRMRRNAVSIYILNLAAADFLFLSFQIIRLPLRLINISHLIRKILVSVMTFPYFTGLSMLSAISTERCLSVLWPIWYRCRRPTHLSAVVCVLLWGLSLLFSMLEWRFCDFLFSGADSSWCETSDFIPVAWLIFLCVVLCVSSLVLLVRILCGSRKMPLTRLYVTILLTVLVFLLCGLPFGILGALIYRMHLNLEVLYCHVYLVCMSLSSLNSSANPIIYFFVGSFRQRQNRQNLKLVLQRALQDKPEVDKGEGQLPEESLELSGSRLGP
# Measurement Description: MRGPRX4 activation, Fluo-8 Ca2+ FLIPR assay in HEK293T cells stably expressing MRGPRX4
# Assay type: cell-based
# Test Context: Conc. (Log[M]) −9
# Protocol: In some embodiments, cells were cultured in poly-D-Lys coated blacked walled, clear-bottom 96-well microplates. […] The concentration of solution should be determined according to the protocol settings and experimental needs (e.g., Log[M]=−4, −5, −6, −7, −8, and −9). […] A fluorescent signal baseline was measured using FLIPR®Tetra for 30 s. […] The fluorescent signal would be measured for another 150 s. Activity of each compound was calculated by the fluorescence change (dF/F0). […]
Form field (numeric): enter value without unit.

| Molecule | Measured |
| --- | --- |
| C[C@]12CC[C@@H](O)C[C@H]1CC[C@@H]1[C@@H]2C[C@H](O)[C@]2(C)[C@@H](CCCCCC(=O)O)CC[C@@H]12 [RC-3] | −0.013 |
| CC[C@H]1[C@@H](OC(=O)c2cccc(I)c2)[C@@H]2[C@H](CC[C@]3(C)[C@@H]([C@H](C)CCC(=O)OC)CC[C@@H]23)[C@@]2(C)CCCC[C@@H]12 [1-5] | −0.084 |
| CC[C@H]1[C@@H](O)[C@@H]2[C@H](CC[C@]3(C)[C@@H]([C@H](C)CCC(=O)NS(=O)(=O)C(C)(C)C)CC[C@@H]23)[C@@]2(C)CCCC[C@@H]12 [4-1] | 0.005 |
| CC[C@H]1[C@@H](O)[C@@H]2[C@H](CC[C@]3(C)[C@@H]([C@H](C)CCC(=O)NS(=O)(=O)CC)CC[C@@H]23)[C@@]2(C)CCCC[C@@H]12 [4-2] | 0.002 |
| CC[C@H]1[C@@H](O)[C@@H]2[C@H](CC[C@]3(C)[C@@H]([C@H](C)CCNC(=O)NS(=O)(=O)c4cc(F)ccc4F)CC[C@@H]23)[C@@]2(C)CC[C@H](F)C[C@@H]12 [9-2] | −0.072 |
| C[C@H](CCC(=O)O)[C@H]1CC[C@H]2[C@@H]3CC[C@@H]4CC(=O)CC[C@]4(C)[C@H]3CC[C@]12C [compound 16] | −0.005 |

Here's the next entry for you.
IN: Item under review: C[C@H](CCC(=O)O)[C@H]1CC[C@H]2[C@@H]3CC[C@@H]4C[C@@H](O)CC[C@]4(C)[C@H]3C[C@H](O)[C@]12C [RC-5] . Reported MRGPRX4 activation, fluorescence change (dF/F0), Average?
OUT: −0.007
